# Assayed Target: Mcl-1-Bak-BH3 complex (Homo sapiens, UniProt Q07820)
# Sequence (Q07820 172-327 limits assumed, one chain of several): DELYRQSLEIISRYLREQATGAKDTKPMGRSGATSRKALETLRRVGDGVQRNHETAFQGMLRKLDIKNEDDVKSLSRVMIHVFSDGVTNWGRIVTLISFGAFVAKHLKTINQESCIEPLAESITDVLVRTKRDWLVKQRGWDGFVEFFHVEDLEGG
# Assay Explanation: Antagonism of the Mcl-1-Bak-BH3 complex (preliminary studies)
# Condition Summary: read-out: IC50 for antagonizing the Mcl-1-Bak-BH3 complex
Measurement Kind: pIC50
Scale note: pIC50 = -log10(concentration in M).

Lab note: measured pIC50 of CC(C)COc1ccc(C(=O)NCCN)c(C#Cc2cc(OCc3ccccc3)ccc2NC(=O)C(=O)O)c1OCC(C)C [Compound 14] was 5.49
